What % de déplacement du ligand marqué was measured for each of the following?
system: récepteurs surrénaliens de l'angiotensine II; assay: Displacement of radioligand [125I]-SIAII specifically bound to adrenal angiotensin II receptors (rat adrenal homogenate); format: binding; settings: competitor 1E-7 M, 60 min, 25°C, 0.1 µM
Numbers only here, please. The scale is %.

stdin: # lookup: récepteurs surrénaliens de l'angiotensine II % de déplacement du ligand marqué, key = `CCCc1nn(C)c(OCC(=O)OCC)c1Cc1ccc(-c2ccsc2-c2nnn[nH]2)cc1`
stdout: 9

stdin: # lookup: récepteurs surrénaliens de l'angiotensine II % de déplacement du ligand marqué, key = `CCCCc1nn(C)c(OCCO)c1Cc1ccc(NC(=O)c2ccccc2S(=O)(=O)O)cc1`
stdout: 60

stdin: # lookup: récepteurs surrénaliens de l'angiotensine II % de déplacement du ligand marqué, key = `CCCc1nn(CC(F)(F)F)c(OCCO)c1Cc1ccc(NC(=O)c2ccccc2S(=O)(=O)O)cc1`
stdout: 64

stdin: # lookup: récepteurs surrénaliens de l'angiotensine II % de déplacement du ligand marqué, key = `CCCc1nn(CC(F)(F)F)c(OCC(=O)OC)c1Cc1ccc(NC(=O)c2c(Cl)ccc(Cl)c2C(=O)O)cc1`
stdout: 52

stdin: # lookup: récepteurs surrénaliens de l'angiotensine II % de déplacement du ligand marqué, key = `CCCc1nn(CC(=O)OCC)c(O)c1Cc1ccc(NC(=O)c2c(Cl)ccc(Cl)c2C(=O)O)cc1`
stdout: 2

stdin: # lookup: récepteurs surrénaliens de l'angiotensine II % de déplacement du ligand marqué, key = `CCCCc1nn(C)c(OC(=O)N(C)C)c1Cc1ccc(-c2ccccc2-c2nn[nH]n2)cc1`
stdout: 47

stdin: # lookup: récepteurs surrénaliens de l'angiotensine II % de déplacement du ligand marqué, key = `CCCc1nn(C)c(OCCO)c1Cc1ccc(-c2ccsc2C(=O)O)cc1`
stdout: 0

stdin: # lookup: récepteurs surrénaliens de l'angiotensine II % de déplacement du ligand marqué, key = `CCCCc1nn(C)c(O)c1Cc1ccc(NC(=O)c2c(Cl)ccc(Cl)c2C(=O)O)cc1`
stdout: 0

stdin: # lookup: récepteurs surrénaliens de l'angiotensine II % de déplacement du ligand marqué, key = `CCCc1nn(C)c(COC)c1Cc1ccc(-c2ccccc2-c2nnn[nH]2)cc1`
stdout: 35

stdin: # lookup: récepteurs surrénaliens de l'angiotensine II % de déplacement du ligand marqué, key = `CCCc1nn(C)c(OCC(=O)OCC)c1Cc1ccc(NC(=O)c2ccccc2S(=O)(=O)O)cc1`
stdout: 60

stdin: # lookup: récepteurs surrénaliens de l'angiotensine II % de déplacement du ligand marqué, key = `CCCc1nn(C)c(O)c1Cc1ccc(-c2ccccc2-c2nnn[nH]2)cc1`
stdout: 24

stdin: # lookup: récepteurs surrénaliens de l'angiotensine II % de déplacement du ligand marqué, key = `CCCc1nn(C)c(OCCO)c1Cc1ccc(-c2ccccc2-c2nn[nH]n2)cc1`
stdout: 38

stdin: # lookup: récepteurs surrénaliens de l'angiotensine II % de déplacement du ligand marqué, key = `CCCc1nn(C)c(OCC(=O)O)c1Cc1ccc(NC(=O)c2ccccc2S(=O)(=O)O)cc1`
stdout: 48

stdin: # lookup: récepteurs surrénaliens de l'angiotensine II % de déplacement du ligand marqué, key = `CCCCc1nn(C)c(O)c1Cc1ccc(-c2ccccc2C(=O)O)cc1`
stdout: 10

stdin: # lookup: récepteurs surrénaliens de l'angiotensine II % de déplacement du ligand marqué, key = `CCCCc1nn(C)c(OCC(=O)OCC)c1Cc1ccc(NC(=O)c2ccccc2C(=O)O)cc1`
stdout: 39

stdin: # lookup: récepteurs surrénaliens de l'angiotensine II % de déplacement du ligand marqué, key = `CCCCc1nn(C)c(OCC(=O)N2CCOCC2)c1Cc1ccc(NC(=O)c2ccccc2S(=O)(=O)O)cc1`
stdout: 58
